# assay_remarks: Clearance in Sprague-Dawley rat at 0.5 mg/kg, iv
# Assay type: ADME, organism-based
# Design: dose 0.5 mg/kg, route intravenous
# condition_description: in vivo
The threshold is 10 mL/min/kg. Values of clearance beneath it are tagged true; values meeting or exceeding it are tagged false.

compound_structure_string: COc1cc2nccc(Oc3ccc4c(c3)OCCN4C(=O)Nc3ccc(C)cc3)c2cc1OC
group: false

Q) Consider the compound COc1cc2nccc(Oc3ccc4c(c3)OCCN4C(=O)Nc3ccc(Cl)cc3)c2cc1C(N)=O . Is its clearance strictly less than 10 mL/min/kg?
A) true

Q) Dear reviewer, please state whether COc1cc2nccc(Oc3ccc4c(c3)OCCN4C(=O)Nc3ccc(F)cc3)c2cc1OC has clearance strictly beneath 10 mL/min/kg.
A) false

Q) Bench note: check whether COc1cc2nccc(Oc3ccc4c(c3)OCCN4C(=O)Nc3ccc(C)cc3)c2cc1C(N)=O shows clearance below 10 mL/min/kg
A) false

Q) Is clearance strictly under 10 mL/min/kg for the entry COc1cc2nccc(Oc3ccc4c(c3)OCCN4C(=O)Nc3ccccc3)c2cc1OC ?
A) false
